# Study Target: MCL-1 (Homo sapiens, UniProt Q07820)
# Sequence (Q07820 whole entry): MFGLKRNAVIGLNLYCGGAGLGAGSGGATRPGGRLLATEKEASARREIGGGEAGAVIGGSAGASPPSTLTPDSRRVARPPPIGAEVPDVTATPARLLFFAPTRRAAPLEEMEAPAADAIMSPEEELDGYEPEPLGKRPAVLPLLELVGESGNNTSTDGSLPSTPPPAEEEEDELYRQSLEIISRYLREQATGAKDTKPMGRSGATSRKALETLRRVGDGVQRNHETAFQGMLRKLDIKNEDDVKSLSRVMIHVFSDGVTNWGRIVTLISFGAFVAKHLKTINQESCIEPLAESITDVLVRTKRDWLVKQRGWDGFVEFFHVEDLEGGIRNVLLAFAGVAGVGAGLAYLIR
# Assay: Protein-protein interaction assay MCL-1/Noxa BH3 peptide (MCL-1 assay), TR-FRET
# Assay type: binding
# Protocol Conditions: MBP-MCL-1 / Noxa BH3-derived peptide, median
Assay Metric: IC50 (nM)

Solved entries:
CN1CCCn2c(C(=O)O)c(CCCOc3cccc4ccccc34)c3cccc(c32)-c2c(COc3ccc(S(C)(=O)=O)cc3)nn(C)c2C1 (single isomer, unassigned) [Example 1-50]: 16.7
Cn1nc(COc2ccc(N3CCN(C(=O)OC(C)(C)C)CC3)cc2)c2c1COCCCCn1c(C(=O)O)c(CCCOc3cccc4ccccc34)c3cccc-2c31 (racemic): 18.7
O=C(O)c1c(CCCOc2cccc3ccccc23)c2cccc3c2n1CCCCOCc1nn2c(c1-3)OCCC2 (racemic) [Example 247]: 6.15
O=C(O)c1c(CCCOc2cccc3ccccc23)c2cccc3c2n1CCCCOCc1nn2c(c1-3)COCC2 (single isomer, unassigned) [Example 252]: 3.7
Cn1nc(COCc2ccccc2)c2c1COCC=CCn1c(C(=O)O)c(CCCOc3cccc4ccccc34)c3cccc-2c31 (racemic): 141

P. Cc1c2c(nn1CCN1CCOCC1)COCCCCn1c(C(=O)O)c(CCCOc3cccc4ccccc34)c3cccc-2c31 (single isomer, unassigned; enantiomer 1) [Example 054]
Q. CCc1nn(C)c2c1-c1c(C)ccc3c(CCCOc4cccc5cc(F)ccc45)c(C(=O)O)n(c13)CCCCOC2 (single isomer, unassigned) [Example 267]
Req: Among P and Q , which shows a numerically higher IC50 result? Refer to your chosen entry by its label in the reply.
Resp: P

* * *

# Tested on: A2780
# Assay: Anti-proliferative effect (CellTiter-Glo, 72 h), A2780
# Format: cell-based
# Protocol Conditions: A2780 cells, median, read-out: IC50 antiproliferation assay A2780 [M] (median)
Assay Metric: IC50 (M)

Cc1ccc2c(CCCOc3cccc4ccccc34)c(C(=O)O)n3c2c1-c1c(C)nn(C)c1COCCCC3 (single isomer, unassigned; enantiomer 2): 2.01e-05

P. Cc1ccc2c(CCCOc3cccc4cc(F)ccc34)c(C(=O)O)n3c2c1-c1c(nn(CCN2CCOCC2)c1C)COCCCC3 (single isomer, unassigned)
Q. CN1CCCn2c(C(=O)O)c(CCCOc3cccc4ccccc34)c3cccc(c32)-c2c(CCN3CCOCC3)nn(C)c2C1 (single isomer, unassigned; enantiomer 2) [Example 126]
Req: Among P and Q , which shows a numerically higher IC50 result? Refer to your chosen entry by its label in the reply.
Resp: Q

* * *

# Study Target: BCL-2 (Homo sapiens, UniProt P10415)
# Construct: BCL-2 (amino acids 1-211, C-terminal fused to a hexahistidine (6×His) tag); purchased BPS Bioscience (San Diego, Calif., USA); host or cells: E. coli
# Sequence (P10415 1-211): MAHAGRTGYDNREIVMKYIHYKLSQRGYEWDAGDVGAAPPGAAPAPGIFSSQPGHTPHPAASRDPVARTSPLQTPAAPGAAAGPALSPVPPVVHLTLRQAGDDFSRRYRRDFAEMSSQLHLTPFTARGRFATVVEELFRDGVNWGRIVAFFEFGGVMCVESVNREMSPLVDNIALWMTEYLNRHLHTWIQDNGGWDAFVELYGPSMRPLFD
# Assay: Protein-protein interaction assay BCL-2/Bad BH3 peptide (BCL-2 assay), TR-FRET
# Format: binding
# Protocol Conditions: His-BCL-2 / Bad BH3-derived peptide, median
Measured IC50 of individual entries

Solved entries:
CCn1nc2c(c1C1CC1)-c1cccc3c(CCCOc4cccc5ccccc45)c(C(=O)O)n(c13)CCCCOC2 (single isomer, unassigned; enantiomer 1): > 20 µM
Cc1nn(C)c2c1-c1cccc3c(CCCOc4cccc5cc(F)ccc45)c(C(=O)O)n(c13)CCCOC2 (single isomer, unassigned; enantiomer 1): > 20 µM

Req: Determine reported IC50 for COCc1nn(C)c2c1-c1cccc3c(CCCOc4cccc5ccccc45)c(C(=O)O)n(c13)CCCN(C)C2 (single isomer, unassigned; enantiomer 2) ; test system: BCL-2 (Homo sapiens, UniProt P10415).
Resp: > 20 µM

Req: Determine reported IC50 for Cc1c2c(nn1C)COCCCCn1c(C(=O)O)c(CCCOc3cccc4ccccc34)c3cccc-2c31 (racemic) [Example 1-36] ; test system: BCL-2 (Homo sapiens, UniProt P10415).
Resp: > 20 µM

Req: Determine reported IC50 for CN1CCCn2c(C(=O)O)c(CCCOc3cccc4ccccc34)c3cccc(c32)-c2c(COc3ccc(N4CCN(S(=O)(=O)N(C)C)CC4)cc3)nn(C)c2C1 (single isomer, unassigned; enantiomer 1) ; test system: BCL-2 (Homo sapiens, UniProt P10415).
Resp: > 20 µM
